Data provenance is paper PMC10481538.

Quick reference: AUC(0-t) of the listed items.
Assay: clinical
Conditions: both, human, in vivo, po, AUC(0-12)
Response body: numeric value in µg·h/mL, unit text excluded.

compound	quantity.name	readout.value
COc1cc(CCC(=O)O)ccc1O [DHFA, Dihydroferulic acid]	AUC(0-t)	0.0356

Now examine the next entry.
**Query** Would you mind telling me what AUC(0-t) value was observed for O=C(O)/C=C/c1ccc(O)c(O)c1 ?
**Result** 0.0018

* * *

Experiment: Phase 1 pharmacokinetic trial of CAP, plasma analysis by HPLC-MS/MS
Details: both, human, plasma, po, 4 g, Tmax, single oral 4 g CAW (CAP), n = 7, mean (SEM)
Recorded measurements of Tmax, one per entry
# unit: h | format: bare number

compound	quantity.name	measure.unit	readout.value
O=C(O)CCc1cccc(O)c1 [HPP, 3-(3-hydroxyphenyl) propionic acid]	Tmax	h	5.7

**Query** # Tmax lookup, item O=C(O)CCc1ccc(O)c(O)c1 [DHCA, Dihydrocaffeic acid]
**Result** 3.2
